Recorded measurements of growth, one per entry
system: A498 renal; assay: NCI-60 one-dose screen, 48 h (100 = growth as untreated, 0 = no growth, -100 = all killed); conditions: 10 µM unless noted
About 83,000 compounds went through this panel and 20% of them were active in at least one assay; those are over-represented in the sample as a whole.

molecule: CC#CC#Cc1cccc(=O)o1
growth (%): 113

molecule: O=[N+]([O-])c1cccc(-c2nc3sccn3c2-c2ccnc(NCCCNS(=O)(=O)c3ccc(F)cc3)n2)c1
growth (%): 29.7

molecule: O=C1C=CC(=O)c2c1nc1n2CCCC1
growth (%): 96.3

molecule: COc1cc(-c2c3sc(=O)[nH]c3nc3c2c(=O)[nH]n3C(C)C)cc2c1OCO2
growth (%): 67.1

molecule: CCCNc1nc(SC)nc(-c2cccc(N)c2)c1C#N
growth (%): 72.4

molecule: CC1=C(C)C(=O)OC([C@](C)(O)[C@]2(O)CC[C@@]3(O)[C@@H]4C[C@H]5O[C@]56CC=CC(=O)[C@]6(C)[C@H]4CC[C@]23COC(=O)c2ccc(C)o2)C1 (stereo not given in full)
growth (%): -78.3

molecule: CC(=O)CC(C)(C)c1ccc(Cl)cc1
growth (%): 108

molecule: O=[N+]([O-])c1cccc(-c2nc3sccn3c2-c2ccnc(NCCCNS(=O)(=O)c3cccc(F)c3)n2)c1
growth (%): 33.7

molecule: CC(C)[C@@H]1CC[C@]2(C(=O)NCCCCN=C(N)N)CC[C@]3(C)[C@H](CC[C@@H]4[C@@]5(C)CCC(=O)C(C)(C)[C@@H]5CC[C@]43C)[C@@H]12
growth (%): 111

molecule: O=[N+]([O-])c1c(F)cccc1Nc1cccc(F)c1
growth (%): 80.8

molecule: COc1ccccc1-c1ccc2c(N)c(C(=O)c3ccc4c(c3)OCO4)sc2n1
growth (%): 60.1

molecule: CC/C=C\C[C@H](O)C/C=C1/C(=O)C=C[C@@H]1C/C=C\CCCC(N)=O
growth (%): 54.6

molecule: COc1ccc(/C=N\NC(=O)c2ccncc2)cc1O
growth (%): 108

molecule: COc1ncc(-c2ccc3ncnc(Nc4cccc(Cl)c4)c3c2)cc1NS(C)(=O)=O
growth (%): 0.974

molecule: CN1/C(=C\C=C\C2=[N+](C)c3ccccc3C2(C)C)C(C)(C)c2ccccc21
growth (%): 1.83

molecule: Cc1ccc(NC(=O)c2sc3nc4c(cc3c2N)C(=O)CCC4)cc1C
growth (%): -2.89

molecule: Nc1cccc(NC(=O)C(=O)Nc2cccc(N)c2)c1
growth (%): 89.6

molecule: Oc1cccc(Nc2nccc(-c3ccc4ccccc4c3)n2)c1
growth (%): 71.2

molecule: CC[C@H](Nc1nc(N)nc(C)c1C#N)c1nc2cccc(NCc3ccc(C(=O)NO)cc3)c2c(=O)n1-c1ccccc1
growth (%): -38.6

molecule: CN(C)CCOc1ccc(-c2nc3ccc(-c4nc5ccc(N6CCN(C)CC6)cc5[nH]4)cc3[nH]2)cc1
growth (%): 35.3

---

system: HOP-62 NSCLC; assay: NCI-60 one-dose screen, 48 h (100 = growth as untreated, 0 = no growth, -100 = all killed); conditions: 10 µM unless noted
This is part of a sample that, as a whole, favours compounds with a hit. Of some 83,000 tested, about 20% had one in any assay. Activity calls are given as the source filed them. Rule for the calls: active = growth percent below 10; inactive = the rest.
Reported growth is given for each of the following molecules.

molecule: CC/C=C\C[C@H](O)C/C=C1/C(=O)C=C[C@@H]1C/C=C\CCCC(N)=O
growth: -15.6% (active)

molecule: C/C(Cc1ccc(Cl)cc1)=C(\c1ccc(OCCN2CCCCCC2)cc1)c1ccc(OC(=O)Cc2ccccc2)cc1
growth: 85.7% (inactive)

molecule: NS(=O)(=O)N(c1cc(C(F)(F)F)cc(C(F)(F)F)c1)C1CCN(Cc2ccc(F)cc2)CC1
growth: 77.3% (inactive)

molecule: CC1=CC(=O)CC(C)(C)[C@@]1(O)/C=C/[C@@H](C)O
growth: 107% (inactive)

molecule: O=C1c2c[n+](Cc3ccccc3)ccc2-c2nc3ccccc3c3ccnc1c23
growth: -27.2% (active)

molecule: COc1cc(-c2cc(-c3nc4ccc(Cl)cc4[nH]3)[nH]n2)cc(OC)c1OC
growth: 40.1% (inactive)

molecule: C=C1C(=O)O[C@H]2[C@H]1CC/C(Cn1cc(Cn3ccc4ccccc43)nn1)=C\CC[C@@]1(C)O[C@@H]21
growth: 77.5% (inactive)

molecule: COc1ccc(-c2cnoc2-c2cc(OC)c3c(c2)OCCO3)cc1
growth: -8.55% (active)

molecule: Cc1ccc(C2CC3c4ccccc4C2C2CCCCN32)cc1 (stereo not given)
growth: 98.6% (inactive)

molecule: Cc1ccc(/C=C2\Oc3cc(OCC(=O)c4ccc(Cl)cc4)ccc3C2=O)cc1
growth: 104% (inactive)

molecule: O=c1c(/C=C/c2ccco2)nnc(SCCN2CCOCC2)n1/N=C/c1ccc([N+](=O)[O-])cc1
growth: 101% (inactive)

molecule: O=C1CCc2c(sc3[nH]c(=S)n(Cc4ccccc4)c(=O)c23)C1
growth: 10.2% (inactive)

molecule: CC1=C(NCCN2CCCC2)C(=O)c2c(OCc3ccc(F)c(Cl)c3)cccc2C1=O
growth: 68.8% (inactive)

molecule: Cc1ccc(Nc2c(C(N)=O)cnc3ccc(-c4csc(N)n4)cc23)cc1
growth: 96.4% (inactive)

molecule: CS(=O)(=O)c1ccc(-c2cnc3ccc(-c4cccc(S(C)(=O)=O)c4)nn23)cc1
growth: 59.2% (inactive)

molecule: O=C(/C=C\c1cccc([N+](=O)[O-])c1)c1ccccc1
growth: 90.8% (inactive)

molecule: Nc1c(C(=O)Nc2ccccc2Cl)sc2nc3c(cc12)CCCCCC3
growth: 27% (inactive)

molecule: Nc1cc(-c2nc3sccn3c2-c2ccnc(NCCCNS(=O)(=O)c3ccc(F)cc3)n2)ccc1F
growth: 78.1% (inactive)

molecule: COc1ccc(C(=O)/C=C/c2c[n+](=O)c3ccc(F)cc3n2[O-])cc1
growth: 104% (inactive)

molecule: CCCCCCCCCC(=O)Oc1ccc(/C(=C(/C)Cc2cccc(OC)c2)c2ccc(OCCN(C)C)cc2)cc1
growth: 111% (inactive)

---

system: NCI-H23 lung; assay: NCI-60 one-dose screen, 48 h; details: 10 µM unless noted
About 83,000 compounds went through this panel and 20% of them were active in at least one assay; those are over-represented in the sample as a whole. Active and inactive are the calls of the source. The calls were made as follows: active = growth percent below 10; inactive = the rest.
Outcomes: active, inactive

molecule: C=CCSc1nnc(-c2ccc(C(C)(C)C)cc2)n1-c1cccc(C(F)(F)F)c1
categoryLabel: inactive
//
molecule: CCN(CC)CC(C)(C)C(=O)/C=C/c1ccccc1
categoryLabel: inactive
//
molecule: CC/C=C\C[C@H](O)C/C=C1/C(=O)C=C[C@@H]1C/C=C\CCCC(N)=O
categoryLabel: active
//
molecule: Cn1cc(-c2ccc(-c3cn(C)c4ncccc34)[nH]2)c2cccnc21
categoryLabel: inactive
//
molecule: Nc1cc(O)cc2cccnc12
categoryLabel: inactive
//
molecule: O=C(CCCN1CCOCC1)Nc1ccc(Cn2nnc3c2C(=O)c2nnn(Cc4ccc(NC(=O)CCCN5CCOCC5)cc4)c2C3=O)cc1
categoryLabel: active
//
molecule: COc1ccc(/C(=C/c2ccc3ccccc3c2)c2nn[nH]n2)cc1OC
categoryLabel: inactive
//
molecule: Cc1ccc(C2CC3c4ccccc4C2C2CCCCN32)cc1 (stereo unspecified)
categoryLabel: inactive
//
molecule: COc1ccc(C2Nc3ccccc3-n3cccc32)cc1 (stereo unspecified)
categoryLabel: inactive
//
molecule: COc1ccc(-c2cc(NC(=O)Nc3ccc(O)cc3)no2)cc1
categoryLabel: inactive
//
molecule: COc1cc(/C=N/N(C)C)ccc1O
categoryLabel: inactive

---

System: UACC-62 melanoma
Assay: NCI-60 one-dose screen, 48 h (100 = growth as untreated, 0 = no growth, -100 = all killed)
Conditions: 10 µM unless noted
Method: Growth inhibition of the UACC-62 human tumor cell line is measured as a screen for anti-cancer activity. Cells are grown in 96 well plates and exposed to the test compound for 48 hours. Compounds are tested at a single concentration, which is 10^-5 M for most compounds. The reported endpoint is percent growth (GI% or GIPRCNT), where numbers from 0 - 100% represent growth inhibition, and numbers from -100% - 0 represent cell death. For example, a value of 40 represents 60% growth inhibition. […]
About 83,000 compounds went through this panel and 20% of them were active in at least one assay; those are over-represented in the sample as a whole.
// classify: if (growth < 60%) t else f

molecule: COc1ccc(-c2cn3c(ccc4ccccc43)n2)cc1
categoryLabel: f

molecule: CC(C)c1c(C(=O)Nc2ccccc2)c(-c2ccccc2)c(-c2ccc(F)cc2)n1CC[C@@H]1CC=CC(=O)O1
categoryLabel: t

molecule: COc1ccc(CN2C(=O)/C(=C\c3cc(OC)c(OC)c(OC)c3)c3cc(OC)ccc32)cc1
categoryLabel: t

molecule: CCC(c1ccccc1)C(CC)c1ccc(O)c(O)c1 (centres undefined)
categoryLabel: f

molecule: COc1ccc2c(c1)C(=O)/C(=C/c1cccc(OCC(=O)Nc3nc4c(s3)CCCC4)c1)O2
categoryLabel: f

molecule: O=C(Nc1cccc2[nH]c(C(F)(F)F)nc12)c1ccc(Br)cc1F
categoryLabel: t

molecule: CC(=O)Nc1ccc2c(c1)c(NC(C)=O)nn2C(=O)Nc1ccc(Cc2ccccc2)cc1
categoryLabel: t

molecule: CSc1[nH]c2ncnc(N)c2c1C#N
categoryLabel: f

molecule: COc1ccc2[nH]c(=O)c(/C=C/C(=O)c3ccc(Nc4nccc(-c5ccc6ccccc6c5)n4)cc3)cc2c1
categoryLabel: f

molecule: CN1CCN(c2ccc3nc(-c4ccc5nc(-c6ccc(OCCC(C)(C)C)cc6)[nH]c5c4)[nH]c3c2)CC1
categoryLabel: f

molecule: COc1ccc(-c2cc(/C=C3\C(=O)Nc4ccc(Cl)cc43)[nH]n2)cc1
categoryLabel: t

molecule: COc1ccc(/C(=C/c2ccc3ccccc3c2)c2nn[nH]n2)cc1OC
categoryLabel: t

molecule: C=CCSc1nnc(-c2ccc(C(C)(C)C)cc2)n1-c1cccc(C(F)(F)F)c1
categoryLabel: t

molecule: COc1ccc(S(=O)(=O)NCCCNc2nccc(-c3c(-c4cccc(N)c4)nc4sccn34)n2)cc1
categoryLabel: t

molecule: COc1ccc(-c2cc(-c3ccc(N(C)C)cc3)nc(NC(=O)c3ccncc3)n2)cc1
categoryLabel: f

molecule: COc1cc(-c2c3sc(=O)[nH]c3nc3c2c(=O)[nH]n3C(C)C)cc2c1OCO2
categoryLabel: f

molecule: CC[C@H](Nc1ncnc(N)c1C(N)=O)c1nc2cccc(NCc3ccc(C(=O)NO)cc3)c2c(=O)n1-c1ccccc1
categoryLabel: f

molecule: COc1ccc(C(=O)COc2ccc(/C=C3\Oc4ccc(Cl)cc4C3=O)cc2)cc1
categoryLabel: f

molecule: C=C1C(=O)O[C@H]2[C@H]1CC/C(Cn1cc(Cn3ccc4cc(Cl)ccc43)nn1)=C\CC[C@@]1(C)O[C@@H]21
categoryLabel: t
